# credit: PubChem BioAssay (NCI)

System: NCI-H522 lung
ASSAY_COMMENT: NCI tumour cell line growth inhibition, 48 h; in the data active means GI50 below about 0.43 µM; inactive means the rest
// one of active, inactive, no free text

Prompt line: Please indicate how the test categorized `C=C1C(=O)O[C@H]2[C@H]1CC/C(COC(=O)N1CCC[C@H]1C(=O)Nc1ccc(OC)c(C(N)=O)c1O)=C\CC[C@@]1(C)O[C@@H]21` .
Response line: inactive

Prompt line: What would you report for `Clc1nc(Cl)c2c(ncn2C/C=C\Cn2cnc3c(Cl)nc(Cl)nc32)n1` ?
Response line: inactive

Prompt line: What would you report for C=C1CC[C@@H]2[C@](C)(COC(C)=O)[C@H](OC(C)=O)CC[C@@]2(C)[C@@H]1CC(Nc1ccc(S(=O)(=O)Nc2nccc(C)n2)cc1)C1=CCOC1=O (stereo partly drawn) ?
Response line: inactive

Prompt line: What would you report for `COc1cc(-c2cn(-c3ccc(Cl)cc3)c(C)c2C(=O)C(F)(F)F)cc(OC)c1OC` ?
Response line: inactive

Prompt line: What would you report for CC1OC2CC(=O)OC2C2=C1C(=O)c1c(O)c3c(c(O)c1C2=O)C1CC(O)C3(O)C(C)O1 (stereo not drawn) ?
Response line: active

Prompt line: What would you report for COc1c(N2CCN(CN3C(=O)C(=Nc4ccc(S(=O)(=O)Nc5ncccn5)cc4)c4ccccc43)C(C)C2)c(F)cc2c(=O)c(C(=O)O)cn(C3CC3)c12 (stereo not drawn) ?
Response line: inactive

Prompt line: What would you report for `O=C(CCl)N1c2ccccc2Sc2c1ccc1ccccc21` ?
Response line: inactive

Prompt line: What would you report for `CO/N=C(\C)c1ccc(Nc2cc(-c3ccccc3)nc3c(O)cccc23)cc1` ?
Response line: inactive

###

System: HOP-92 NSCLC
ASSAY_COMMENT: NCI tumour cell line growth inhibition, 48 h; in the data active = GI50 below about 0.43 µM; inactive = the rest
// one of active, inactive, no free text

Prompt line: Please indicate how the test categorized `O=C(CCl)N1c2ccccc2Sc2c1ccc1ccccc21` .
Response line: inactive

Prompt line: What would you report for `Fc1ccc2[nH]c3c(NCCCN4CCOCC4)ncnc3c2c1` ?
Response line: inactive

Prompt line: What would you report for `Cc1nc2sc(C(=O)Nc3ccccc3)c(N)c2cc1C(=O)/C=C/c1ccccc1` ?
Response line: inactive

Prompt line: What would you report for `CCCCN(Cc1ccc(F)cc1)c1ccc(CO)c(Cl)c1` ?
Response line: inactive

Prompt line: What would you report for `Oc1ccc(CCCCCCc2ccc(O)cc2)cc1` ?
Response line: inactive

Prompt line: What would you report for CC(=O)OCC1OC(n2ccc(=O)[nH]c2=O)C(OC(C)=O)C1OC(C)=O (configuration not stated) ?
Response line: inactive

Prompt line: What would you report for `CN(C)C(=S)N=Nc1c(O)[nH]c2ccccc12` ?
Response line: inactive

Prompt line: What would you report for `O=C1/C(=C/c2ccc(O)cc2)COc2ccc(-c3ccccc3)cc21` ?
Response line: inactive

Prompt line: What would you report for `C=C1C(=O)O[C@H]2[C@H]1CC/C(COC(=O)N1CCC[C@H]1C(=O)Nc1ccc(OC)c(C(N)=O)c1O)=C\CC[C@@]1(C)O[C@@H]21` ?
Response line: inactive

Prompt line: What would you report for `Nc1cc(N)c(N)cc1N` ?
Response line: inactive

Prompt line: What would you report for CC(=O)O[C@@H]1CC2C(C)(C)CCCC2(C)C2=C1C(=O)C(C(C)C)=CC2=O (some centres not stated) ?
Response line: inactive

Prompt line: What would you report for `COc1cc(-c2cn(-c3ccc(Cl)cc3)c(C)c2C(=O)C(F)(F)F)cc(OC)c1OC` ?
Response line: inactive

Prompt line: What would you report for `Clc1nc(Cl)c2c(ncn2C/C=C\Cn2cnc3c(Cl)nc(Cl)nc32)n1` ?
Response line: inactive

Prompt line: What would you report for `CCCCCCCCCCCC[n+]1ccc(CCCCCCCCC)cc1` ?
Response line: active

Prompt line: What would you report for `ClCc1c(Cl)c(Cl)c(Cl)c(CCl)c1Cl` ?
Response line: inactive

Prompt line: What would you report for `CC[C@H](CC#N)OC(=O)N[C@@H](C)c1cccc(NC(=O)Nc2ccc(-c3cnco3)c(OC)c2)c1` ?
Response line: inactive

Prompt line: What would you report for `COc1cc[nH]c1/C=C1\C(=O)Nc2ccc(F)c(I)c21` ?
Response line: inactive
